Taken from PubChem BioAssay.

Listed here: items and their measured composite z-score.
assay: probe aLAP1 signal on lysate-treated microarray – cell lysate, small-molecule microarray, COS7 lysate, primary screen (AID 1124); settings: probe aLAP1, fluorescence, higher = more signal;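 also: lysate comes from COS7 cells expressing LAP1 and is applied at 0.3 µg/mL; score merges spot fluorescence near 667 nm with signal-to-noise over triplicate slides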

C=CC[C@@]1(C(=O)N2CCCCC2)N=C(c2ccc(OCCCO)cc2)O[C@@H]1c1ccccc1N=[N+]=[N-] | -0.0724

Per the records, this compound ( COC(=O)[C@@]1(Cc2ccccc2)[C@H]2c3cc(C(=O)N(C)C)n(Cc4ccc(OC)c(OC)c4)c3C[C@H]2CN1C(=O)c1ccccc1 ) has composite z-score equal to 0.463

Per the records, this compound ( O=C1C2C=CC(C(O)c3ccc(F)cc3)N(Nc3ccc([N+](=O)[O-])cc3)C2C(=O)N1c1ccccc1 (stereo unspecified) ) has composite z-score equal to 0.569

Per the records, this compound ( CC1CC/C=C\[C@H]2OC34C=CCN(Cn5nnc6ccccc65)C(=O)[C@H]3N(CCCCCO)C(=O)[C@@H]4C2C(=O)O1 (stereo partly specified) ) has composite z-score equal to 0.434

Per the records, this compound ( COc1ccc([Si](C)(C)[C@H]2[C@H](CCn3cc([C@H](O)c4ccccc4)nn3)O[C@@]3(C(=O)N(C)c4ccccc43)[C@@H]2C)cc1 ) has composite z-score equal to -0.116

Per the records, this compound ( C=CCC(OC(C)=O)[C@@H]1[C@@H](N(Cc2ccc(-c3ccccc3)cc2)C(=O)Cc2ccc(F)cc2)c2cc(OCCCO)ccc2N1C(=O)c1ccc2ccccc2c1 (stereo partly specified) ) has composite z-score equal to 0.225

Per the records, this compound ( COc1cc(CO)cc(I)c1O[C@H]1C=C(C(=O)NCCO)C[C@@H](NC[C@@H]2CCCO2)[C@@H]1O ) has composite z-score equal to 0.696
